# Test system: NCI-H322M
# Protocol Summary: Growth inhibition of human NCI-H322M cells
# Format: functional
# Condition Notes: read-out: LC50 (the source's name)
Parameter Measured: CC50

- Smiles Code: "O=C1/C(=C\\c2ccccn2)c2ccccc2N1c1c(Cl)cccc1Cl"
  CC50: "28.8 µM"
- Smiles Code: "O=C1/C(=C\\c2coc3ccccc3c2=O)c2ccccc2N1c1c(Cl)cccc1Cl"
  CC50: "> 100 µM"
- Smiles Code: "O=C1Nc2ccccc2/C1=C/c1cn(C(=O)c2c(Cl)cccc2Cl)c2ccccc12"
  CC50: "> 100 µM"

Q. Specify measured CC50 for CC1=NN(c2cccc(Cl)c2)C(=O)/C1=C\c1c(O)ccc2ccccc12 .
A. > 100 µM

Q. Specify measured CC50 for CC1=NN(c2cccc(Cl)c2)C(=O)/C1=C\C=C\c1ccccc1 .
A. > 100 µM

---

# Test system: HCC 2998
# Protocol Summary: Growth inhibition of human HCC2998 cells assessed tumor cell growth at 10^-5 M
# Format: functional
# Set-up: scale not given: the % may be the effect or the level left
# maps each entry to its Activity
Form entry: value (%) — number only.

Answered examples (4):
- Smiles Code: "CC1=NN(c2cccc(Cl)c2)C(=O)/C1=C\\c1cn(Cc2ccccc2)c2ccccc12"
  Activity / %: 109.37
- Smiles Code: "C=CCn1cc(/C=C2\\C(=O)N(c3cccc(Cl)c3)N=C2C)c2ccccc21"
  Activity / %: 103.61
- Smiles Code: "C#CCN1C(=O)/C(=C\\c2cn(CC#C)c3ccccc23)c2ccccc21"
  Activity / %: 107
- Smiles Code: "CN1C(=O)C(=Cc2coc3ccccc3c2=O)C(=O)N(C)C1=O"
  Activity / %: 99.12

Please turn your attention to the following entry.
Q. Specify measured Activity for Cc1ccc(S(=O)(=O)n2cc(/C=C3\C(=O)N(c4c(Cl)cccc4Cl)c4ccccc43)c3ccccc32)cc1 .
A. 86.7

---

# maps each entry to its Activity
# System: MDA-MB-435
# Protocol Summary: Growth inhibition of human MDA-MB-435 cells assessed tumor cell growth at 10^-5 M
# Type: functional
# Set-up: scale not given: the % may be the effect or the level left
Form entry: value (%) — number only.

- Smiles Code: "CC1=NN(c2cccc(Cl)c2)C(=O)/C1=C\\c1coc2ccccc2c1=O"
  Study System: "MDA-MB-435"
  Activity [%]: 110.64
- Smiles Code: "O=C1/C(=C\\c2cn(C(=O)c3c(Cl)cccc3Cl)c3ccccc23)c2ccccc2N1C(=O)c1c(Cl)cccc1Cl"
  Study System: "MDA-MB-435"
  Activity [%]: 112
- Smiles Code: "CC1=NN(c2cccc(Cl)c2)C(=O)/C1=C\\c1c(O)ccc2ccccc12"
  Study System: "MDA-MB-435"
  Activity [%]: 20.68
- Smiles Code: "O=C1Nc2ccccc2/C1=C/c1cn(C(=O)c2ccc(Cl)cc2)c2ccccc12"
  Study System: "MDA-MB-435"
  Activity [%]: 109.9
- Smiles Code: "Cc1ccc(S(=O)(=O)N2C(=O)/C(=C\\c3cn(S(=O)(=O)c4ccc(C)cc4)c4ccccc34)c3ccccc32)cc1"
  Study System: "MDA-MB-435"
  Activity [%]: 109.2

Please turn your attention to the following entry.
Q. Provide measured Activity on MDA-MB-435 for CC1=NN(c2cccc(Cl)c2)C(=O)/C1=C\c1ccccn1 please.
A. 117.42

---

# Test system: HCT-116
# Protocol Summary: Growth inhibition of human HCT116 cells
# Type: functional
# maps each entry to its GI50
Form entry: value (nM) — number only.

Q. Provide measured GI50 on HCT-116 for O=C1/C(=C\c2ccccn2)c2ccccc2N1c1c(Cl)cccc1Cl please.
A. 1700

Q. Provide measured GI50 on HCT-116 for CC1=NN(c2cccc(Cl)c2)C(=O)/C1=C\C=C\c1ccccc1 please.
A. 1500

Q. Provide measured GI50 on HCT-116 for O=C1Nc2ccccc2/C1=C/c1cn(C(=O)c2c(Cl)cccc2Cl)c2ccccc12 please.
A. 1600

Q. Provide measured GI50 on HCT-116 for O=C1/C(=C\c2coc3ccccc3c2=O)c2ccccc2N1c1c(Cl)cccc1Cl please.
A. 1900

---

# maps each entry to its Activity
# Test system: SF-295
# Protocol Summary: Growth inhibition of human SF295 cells assessed tumor cell growth at 10^-5 M
# Format: functional
# Parameters: scale not given: the % may be the effect or the level left
Give the number first and the unit second.

- Smiles Code: "CC1=NN(c2cccc(Cl)c2)C(=O)/C1=C\\c1cn(C(=O)c2c(Cl)cccc2Cl)c2ccccc12"
  Activity: "96.99%"
- Smiles Code: "O=C1Nc2ccccc2/C1=C/c1cn(C(=O)c2ccc(Cl)cc2)c2ccccc12"
  Activity: "114.3%"
- Smiles Code: "CC1=NN(c2cccc(Cl)c2)C(=O)/C1=C\\c1ccccn1"
  Activity: "118.39%"
- Smiles Code: "Cc1ccc(S(=O)(=O)n2cc(/C=C3\\C(=O)N(c4c(Cl)cccc4Cl)c4ccccc43)c3ccccc32)cc1"
  Activity: "100.8%"
- Smiles Code: "CC1=NN(c2cccc(Cl)c2)C(=O)/C1=C\\C=C\\c1ccccc1"
  Activity: "101.1%"
- Smiles Code: "O=C1/C(=C\\c2cn(C(=O)c3ccccc3)c3ccccc23)c2ccccc2N1c1c(Cl)cccc1Cl"
  Activity: "126.6%"
- Smiles Code: "Cc1ccc(S(=O)(=O)n2cc(/C=C3\\C(=O)Nc4ccccc43)c3ccccc32)cc1"
  Activity: "97.1%"
- Smiles Code: "CC1=NN(c2cccc(Cl)c2)C(=O)/C1=C\\c1coc2ccccc2c1=O"
  Activity: "127.24%"
- Smiles Code: "CC1=NN(c2cccc(Cl)c2)C(=O)/C1=C\\c1cn(C(=O)c2ccc(Cl)cc2)c2ccccc12"
  Activity: "102.34%"
- Smiles Code: "C=CCn1cc(/C=C2\\C(=O)N(c3c(Cl)cccc3Cl)c3ccccc32)c2ccccc21"
  Activity: "95.1%"

Please turn your attention to the following entry.
Q. Specify measured Activity for O=C1/C(=C\c2cn(Cc3ccccc3)c3ccccc23)c2ccccc2N1Cc1ccccc1 .
A. 108.8%

---

# System: MDA-MB-231
# Protocol Summary: Growth inhibition of human MDA-MB-231 cells assessed tumor cell growth at 10^-5 M
# Format: functional
# Parameters: scale not given: the % may be the effect or the level left
# maps each entry to its Activity
Give the number first and the unit second.

Answered examples (5):
- Smiles Code: "CC1=NN(c2cccc(Cl)c2)C(=O)/C1=C\\c1cn(C(=O)c2c(Cl)cccc2Cl)c2ccccc12"
  Activity: "82.49%"
- Smiles Code: "C=CCn1cc(/C=C2\\C(=O)N(c3c(Cl)cccc3Cl)c3ccccc32)c2ccccc21"
  Activity: "83.4%"
- Smiles Code: "CC1=NN(c2cccc(Cl)c2)C(=O)/C1=C\\c1cn(S(=O)(=O)c2ccc(C)cc2)c2ccccc12"
  Activity: "85.37%"
- Smiles Code: "O=C1C(=Cc2cn(Cc3ccccc3)c3ccccc23)C(=O)N(Cc2ccccc2)C(=O)N1Cc1ccccc1"
  Activity: "89.3%"
- Smiles Code: "CC1=NN(c2cccc(Cl)c2)C(=O)/C1=C\\c1c(O)ccc2ccccc12"
  Activity: "4.08%"

Q. Specify measured Activity for O=C1/C(=C\c2coc3ccccc3c2=O)c2ccccc2N1c1c(Cl)cccc1Cl .
A. 60.45%

Q. Specify measured Activity for O=C1/C(=C\c2ccccn2)c2ccccc2N1c1c(Cl)cccc1Cl .
A. 15.7%

---

# System: BT-549
# Protocol Summary: Growth inhibition of human BT549 cells
# Assay type: functional
Parameter Measured: GI50 (µM)
Form entry: value (µM) — number only.

Answered examples (4):
- Smiles Code: "O=C1Nc2ccccc2/C1=C/c1cn(C(=O)c2c(Cl)cccc2Cl)c2ccccc12"
  GI50 [µM]: 2.4
- Smiles Code: "CC1=NN(c2cccc(Cl)c2)C(=O)/C1=C\\c1c(O)ccc2ccccc12"
  GI50 [µM]: 27.5
- Smiles Code: "O=C1/C(=C\\c2ccccn2)c2ccccc2N1c1c(Cl)cccc1Cl"
  GI50 [µM]: 2.4
- Smiles Code: "O=C1/C(=C\\c2coc3ccccc3c2=O)c2ccccc2N1c1c(Cl)cccc1Cl"
  GI50 [µM]: 2.8

Q. Specify measured GI50 for CC1=NN(c2cccc(Cl)c2)C(=O)/C1=C\C=C\c1ccccc1 .
A. 1.6

---

# Test system: SW-620
# Protocol Summary: Growth inhibition of human SW620 cells assessed tumor cell growth at 10^-5 M
# Format: functional
# Parameters: scale not given: the % may be the effect or the level left
# maps each entry to its Activity
Form entry: value (%) — number only.

Answered examples (6):
- Smiles Code: "Cc1ccc(S(=O)(=O)n2cc(/C=C3\\C(=O)N(c4c(Cl)cccc4Cl)c4ccccc43)c3ccccc32)cc1"
  Activity / %: 89.9
- Smiles Code: "O=C1C(=Cc2cn(Cc3ccccc3)c3ccccc23)C(=O)N(Cc2ccccc2)C(=O)N1Cc1ccccc1"
  Activity / %: 100.6
- Smiles Code: "CC1=NN(c2cccc(Cl)c2)C(=O)/C1=C\\c1c(O)ccc2ccccc12"
  Activity / %: 30.97
- Smiles Code: "O=C1Nc2ccccc2/C1=C/c1cn(C(=O)c2c(Cl)cccc2Cl)c2ccccc12"
  Activity / %: 45.4
- Smiles Code: "CC1=NN(c2cccc(Cl)c2)C(=O)/C1=C\\c1ccccn1"
  Activity / %: 116.97
- Smiles Code: "C#CCN1C(=O)/C(=C\\c2cn(CC#C)c3ccccc23)c2ccccc21"
  Activity / %: 102

Q. Specify measured Activity for CC1=NN(c2cccc(Cl)c2)C(=O)/C1=C\c1cn(C(=O)c2ccc(Cl)cc2)c2ccccc12 .
A. 99.26

Q. Specify measured Activity for O=C1Nc2ccccc2/C1=C/c1cn(C(=O)c2ccc(Cl)cc2)c2ccccc12 .
A. 102.4

Q. Specify measured Activity for CN1C(=O)C(=Cc2coc3ccccc3c2=O)C(=O)N(C)C1=O .
A. 102.73
